System: rabbit skeletal myofibrils (approximately 90% fast fibers)
Test: Activation of fast skeletal myofibrils (PUMA coupled-enzyme ATPase assay at pCa25)
Format: biochemical
Conditions: concentration at which the compound increased the enzymatic activity by 40%; calcium at pCa25; PM12 buffer pH 6.8
Excerpt: Preparation of fast skeletal myofibrils. […] Activation of Fast Skeletal Myofibrils. […] This assay regenerates myosin-produced ADP into ATP by oxidizing NADH, producing an absorbance change at 340 nm. […]
measured-quantity: Mean AC1.4

CSc1ccc(C(C)(C)Nc2ncc(-c3cccc(C#N)c3)cn2)cc1 | D (D=>20 uM)
CC(C)(Nc1ncc(-c2ncc(C(N)=O)s2)cn1)c1ncccc1Cl | B (B=1-10 uM)
O=c1cc(-c2cnc(NC[C@]3(c4ncccc4F)C[C@H](F)C3)nc2)[nH]c(=O)[nH]1 | B (B=1-10 uM)
COc1ncc(-c2cnc(NC(C)(C)c3ncccc3Cl)nc2)cc1C#N | D (D=>20 uM)
